Where do these numbers come from? They come from PubChem BioAssay (NCI).

Listed below: log10(TGI) values for each entry.
Test system: SK-MEL-5 melanoma
Assay: NCI tumour cell line growth inhibition, 48 h
Would you kindly interpret these values as log10 of TGI expressed in µM?

Please review the following examples before continuing.
{"compound": "S=C(Nc1cc(Cl)c(Cl)cc1Cl)SCc1ccccc1", "log10(TGI)": 1.58}
{"compound": "O=C(CCCSc1nc(-c2ccccc2)cc(-c2ccc(Cl)cc2)n1)NO", "log10(TGI)": 0.74}
{"compound": "CCCCCC[C@H]1C(=O)O[C@H](C)[C@H](NC(=O)c2cccc(NC=O)c2OC)C(=O)O[C@@H](C)[C@@H]1OC(=O)CC(C)C (tested in a mixture with another compound)", "log10(TGI)": 1.59}
{"compound": "O=C(OCCBr)c1ccc(Cl)c([N+](=O)[O-])c1", "log10(TGI)": 1.45}

Task: Dear colleague, please send me the reported log10(TGI) for `COc1ccc(C(=O)/C=C/c2cccnc2)cc1OC` when you can.
Output: 1.44

Task: Dear colleague, please send me the reported log10(TGI) for `O=C(/C=C/c1ccccc1)CSc1nc2ccc(I)cc2c(=O)n1Cc1ccccc1` when you can.
Output: 2.00

Task: Dear colleague, please send me the reported log10(TGI) for COc1cc2c3c(n(C)c(=O)c2cc1OC)-c1cc2c(cc1/C3=C\C(N)CN)OCO2 (centres undefined) when you can.
Output: 0.93

Task: Dear colleague, please send me the reported log10(TGI) for C=C1CCC2C3(C)COC(c4ccccc4Br)OC3CCC2(C)C1C/C=C1/C(=O)OCC1OC(C)=O (centres undefined) when you can.
Output: 0.47

Task: Dear colleague, please send me the reported log10(TGI) for COc1cc2c(cc1OC)C(C)N(C)c1c-2c(OC(C)=O)cc2cc(OC)c(OC)cc12 (centres undefined) when you can.
Output: 1.20

Task: Dear colleague, please send me the reported log10(TGI) for `CC(C)/C(Cl)=N\OC(=O)Nc1ccc(F)cc1F` when you can.
Output: 1.44

###

Tested on: HOP-92 NSCLC
Experiment: NCI tumour cell line growth inhibition, 48 h
resultType: TGI (µM)
Dear colleague, please return just the value in µM, with no unit written.

Please review the following examples before continuing.
{"compound": "CCOc1ccc(NCC2CC/C(=C\\c3ccc(O)cc3)C2=O)cc1 (stereo not given)", "measuredOn": "HOP-92 NSCLC", "assayResult": 30}
{"compound": "Nc1cc(N)c2nc(-c3ccccc3)c(NCc3ccc(F)cc3)nc2c1", "measuredOn": "HOP-92 NSCLC", "assayResult": 6.91}
{"compound": "Cc1ccc2c(C)c3ccc4ccccc4c3c[n+]2c1", "measuredOn": "HOP-92 NSCLC", "assayResult": 52.7}

Now look at this one.
Task: Dear colleague, please send me the reported TGI for COc1cc2c3c(n(C)c(=O)c2cc1OC)-c1cc2c(cc1/C3=C\C(N)CN)OCO2 (stereo not given) when you can.
Output: 6.8

###

System: HOP-62 NSCLC
Test: NCI tumour cell line growth inhibition, 48 h
resultType: TGI

{"compound": "N.N.NCCCCCCN.O=C([O-])CC(=O)[O-].O=C([O-])CC(=O)[O-].[Pt+4].[Pt+4]", "resultType": "TGI", "assayResult": "> 100 µM"}
{"compound": "N#Cc1cc([N+](=O)[O-])ccc1NC(=O)/C(=N/N)C(C(=O)c1ccc(Cl)c(Cl)c1)C1OC(=O)c2ccccc21 (stereo not given)", "resultType": "TGI", "assayResult": "> 100 µM"}
{"compound": "CC(C)(C)OC(=O)N/N=C(/N)Cc1ccccc1", "resultType": "TGI", "assayResult": "> 100 µM"}
{"compound": "CSc1ccccc1C#Cc1ccccc1C#CCCCCO", "resultType": "TGI", "assayResult": "> 100 µM"}
{"compound": "CCSc1nc(=[N+]2CCCC2)ss1", "resultType": "TGI", "assayResult": "> 100 µM"}
{"compound": "COC(=O)C1(Cc2ccc3c(c2)CCC3)Cc2ccc3c(c2C1)CCC3 (stereo not given)", "resultType": "TGI", "assayResult": "> 100 µM"}
{"compound": "CC(C)C12C=CC(C)(CC1)n1c(=O)c3cc4ccccc4cc3c(=O)n12 (stereo not given)", "resultType": "TGI", "assayResult": "> 100 µM"}
{"compound": "Cn1c(=O)c2c(ncn2CCCCOc2ccc3c(c2)[n+]([O-])nc(N)[n+]3[O-])n(C)c1=O", "resultType": "TGI", "assayResult": "> 100 µM"}

Task: Please tell me the measured TGI for O=C1CC(C(=O)N2CCCCC2)n2c(=O)n(-c3ccccc3)c(=O)n2C1 (stereo not given) ; system: HOP-62 NSCLC.
Output: > 100 µM

Task: Please tell me the measured TGI for `CC(C)c1ccc(Nc2nccc(-c3cnn4ncccc34)n2)cc1` ; system: HOP-62 NSCLC.
Output: 2.59 µM
